- Study Target: IKZF2 (Helios) (Homo sapiens, UniProt Q96SW2+Q9UKS7)
- Sequence (Q9UKS7 whole entry): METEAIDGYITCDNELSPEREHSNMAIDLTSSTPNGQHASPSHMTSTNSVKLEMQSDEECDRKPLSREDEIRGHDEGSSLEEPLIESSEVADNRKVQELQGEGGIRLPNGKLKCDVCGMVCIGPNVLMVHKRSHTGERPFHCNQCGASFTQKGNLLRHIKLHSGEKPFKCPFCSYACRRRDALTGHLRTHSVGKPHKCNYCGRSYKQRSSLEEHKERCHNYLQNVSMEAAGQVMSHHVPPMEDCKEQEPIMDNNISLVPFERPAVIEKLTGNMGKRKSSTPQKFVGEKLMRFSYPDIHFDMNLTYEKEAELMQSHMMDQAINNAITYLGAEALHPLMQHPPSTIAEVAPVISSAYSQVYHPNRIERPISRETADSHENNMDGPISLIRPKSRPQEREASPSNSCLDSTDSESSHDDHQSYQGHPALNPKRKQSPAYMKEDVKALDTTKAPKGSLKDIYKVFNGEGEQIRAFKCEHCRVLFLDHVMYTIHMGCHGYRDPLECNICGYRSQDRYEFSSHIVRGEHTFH
- Sequence (Q96SW2 whole entry): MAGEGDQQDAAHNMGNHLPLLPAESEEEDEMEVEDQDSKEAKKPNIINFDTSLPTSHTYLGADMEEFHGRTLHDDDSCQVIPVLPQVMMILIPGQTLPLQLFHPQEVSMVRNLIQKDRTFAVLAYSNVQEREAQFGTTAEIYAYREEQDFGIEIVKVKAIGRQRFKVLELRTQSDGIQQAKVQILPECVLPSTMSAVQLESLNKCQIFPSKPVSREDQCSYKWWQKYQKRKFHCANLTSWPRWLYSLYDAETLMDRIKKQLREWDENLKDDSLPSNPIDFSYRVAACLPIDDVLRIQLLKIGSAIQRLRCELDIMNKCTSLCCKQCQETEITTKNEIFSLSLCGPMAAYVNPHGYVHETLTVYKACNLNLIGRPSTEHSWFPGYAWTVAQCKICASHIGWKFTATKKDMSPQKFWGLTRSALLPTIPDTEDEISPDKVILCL
- Sequence (Q16531 whole entry partner): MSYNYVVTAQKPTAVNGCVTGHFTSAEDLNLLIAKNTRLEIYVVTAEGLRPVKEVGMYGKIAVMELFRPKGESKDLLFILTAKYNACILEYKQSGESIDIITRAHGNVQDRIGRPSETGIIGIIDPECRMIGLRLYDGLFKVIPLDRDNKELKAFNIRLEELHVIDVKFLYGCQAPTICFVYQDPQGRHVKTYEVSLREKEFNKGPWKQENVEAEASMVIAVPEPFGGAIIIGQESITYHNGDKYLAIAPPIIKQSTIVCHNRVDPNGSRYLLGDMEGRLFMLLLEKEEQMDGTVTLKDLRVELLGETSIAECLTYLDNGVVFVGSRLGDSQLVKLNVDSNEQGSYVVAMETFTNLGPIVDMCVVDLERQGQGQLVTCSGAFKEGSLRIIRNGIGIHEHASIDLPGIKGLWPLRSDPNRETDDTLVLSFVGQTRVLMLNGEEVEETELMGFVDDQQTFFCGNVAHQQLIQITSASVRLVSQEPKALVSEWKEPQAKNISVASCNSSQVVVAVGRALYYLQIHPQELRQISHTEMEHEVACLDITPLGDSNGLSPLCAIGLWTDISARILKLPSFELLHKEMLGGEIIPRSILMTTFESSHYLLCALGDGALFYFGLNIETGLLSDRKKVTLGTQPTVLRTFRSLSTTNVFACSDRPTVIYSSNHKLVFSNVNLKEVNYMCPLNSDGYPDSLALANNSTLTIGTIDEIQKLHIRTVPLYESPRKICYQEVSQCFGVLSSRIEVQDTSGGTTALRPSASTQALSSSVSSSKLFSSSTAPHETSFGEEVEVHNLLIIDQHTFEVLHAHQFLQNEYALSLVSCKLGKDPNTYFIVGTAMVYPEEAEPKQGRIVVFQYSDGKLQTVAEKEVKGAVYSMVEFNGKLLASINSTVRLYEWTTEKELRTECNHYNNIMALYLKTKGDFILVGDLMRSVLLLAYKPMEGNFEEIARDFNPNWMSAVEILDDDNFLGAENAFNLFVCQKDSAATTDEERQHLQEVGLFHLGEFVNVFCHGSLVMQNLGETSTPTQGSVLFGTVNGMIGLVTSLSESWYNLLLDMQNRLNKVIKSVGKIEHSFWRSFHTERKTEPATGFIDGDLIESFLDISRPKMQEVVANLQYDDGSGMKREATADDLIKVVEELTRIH
- Method Notes: Prolabel quantification of IKZF2 protein levels in 293GT cells
- Format: cell-based
- Condition Context: 24 h, Pro-label assay, 293GT cells, 10 μM, read-out: IKZF2 % protein reduction at 10 μM, 24 h
Result Type: IKZF2 % protein reduction at 10 µM (%)
Give just the numeric value; % need not be written.

Worked examples follow.
* O=C1CCC(N2Cc3cc(O[C@H]4CCC[C@@H]4N4CCC(O)CC4)ccc3C2=O)C(=O)N1 (stereo partly drawn) [I-96] | 81
* CO[C@H]1CC[C@H](CN[C@H]2CCC[C@@H]2Oc2ccc3c(c2)CN(C2CCC(=O)NC2=O)C3=O)CC1 (stereo partly drawn) [I-159] | 75
* O=C1CCC(N2Cc3cc(O[C@H]4CCCC[C@@H]4N4CCC5(CC4)COC5)ccc3C2=O)C(=O)N1 (stereo partly drawn) [I-105] | 52
* CCOC1(C)CCN([C@H]2CCC[C@@H]2Oc2ccc3c(c2)CN(C2CCC(=O)NC2=O)C3=O)CC1 (stereo partly drawn) [I-158] | 82
* COc1ccc(CN[C@H]2CCCC[C@@H]2Oc2ccc3c(c2)CN(C2CCC(=O)NC2=O)C3=O)nc1 (stereo partly drawn) [I-91] | 58

Alright, here's another molecule for you.
Enter IKZF2 % protein reduction at 10 µM (test system IKZF2 (Helios) (Homo sapiens, UniProt Q96SW2+Q9UKS7)) for O=C1CCC(N2Cc3cc(O[C@H]4CCCC[C@@H]4NCc4ccccc4)ccc3C2=O)C(=O)N1 (stereo partly drawn) [I-22]
80
